Where do these numbers come from? They come from ChEMBL document CHEMBL3132848.

Each entry below lists one item and its recorded IC50 value.
test-protocol: Inhibition of beta-glucosidase in almond after 30 mins by spectrophotometric analysis
Set-up: species or system Prunus dulcis

>>> print(df.to_string())
                         chemical_structure      value
0  N=C(NCCOCCO)N1C[C@H](O)[C@@H](O)[C@H](O)[C@H]1CO  > 1000 µM
1  CCCCCCN1C[C@H](O)[C@@H](O)[C@H](O)[C@H]1CO      59 µM
2  N=C(NCCCc1ccccc1)N1C[C@H](O)[C@@H](O)[C@H](O)[C@H]1CO      67 µM
3  CCCCCCCCNC(=N)N1C[C@H](O)[C@@H](O)[C@H](O)[C@H]1CO      25 µM
4  N=C(NCCO)N1C[C@H](O)[C@@H](O)[C@H](O)[C@H]1CO     457 µM

Given item `N=C(NCCCOCC12CC3CC(CC(C3)C1)C2)N1C[C@H](O)[C@@H](O)[C@H](O)[C@H]1CO` , the value recorded as its IC50 is 489 µM

###

test-protocol: Inhibition of naringinase in Penicillium decumbens after 30 mins by spectrophotometric analysis
Flag rule - IC50 less than 70 µM flags y; the remaining entries get n.

In [3]: df
Out[3]:
                         chemical_structure  assigned_category
0  CCCCCCCCNC(=N)N1C[C@H](O)[C@@H](O)[C@H](O)[C@H]1CO                  y
1       OC[C@H]1NC[C@H](O)[C@@H](O)[C@@H]1O                  y
2  N=C(NCCCc1ccccc1)N1C[C@H](O)[C@@H](O)[C@H](O)[C@H]1CO                  y

Q: Does `N=C(NCCOCCO)N1C[C@H](O)[C@@H](O)[C@H](O)[C@H]1CO` have IC50 strictly under 70 µM?
A: n

Q: Is it true that IC50 reported for `CCCCNC(=N)N1C[C@H](O)[C@@H](O)[C@H](O)[C@H]1CO` is less than 70 µM?
A: n

Q: # TODO verify IC50 < 70 µM strictly for this compound: `N=C(NCCCOCC12CC3CC(CC(C3)C1)C2)N1C[C@H](O)[C@@H](O)[C@H](O)[C@H]1CO`
A: y

###

test-protocol: Inhibition of beta-mannosidase in Roman snail after 30 mins by spectrophotometric analysis
Parameters: species or system Helix pomatia
# IC50 values compiled below

For orientation, consider the following solved cases.
In [3]: df
Out[3]:
                                   molecule      value
0  OC[C@H]1NC[C@H](O)[C@@H](O)[C@@H]1O [DUVOGLUSTAT]  > 1000 µM
1  CCCCCCN1C[C@H](O)[C@@H](O)[C@H](O)[C@H]1CO  > 1000 µM
2  CCCCNC(=N)N1C[C@H](O)[C@@H](O)[C@H](O)[C@H]1CO     408 µM

Kindly consider the entry below.
Memo: `CCCCNC(=O)N1C[C@H](O)[C@@H](O)[C@H](O)[C@H]1CO` , reported IC50: > 1000 µM

###

target-of-assay: Alpha-galactosidase (Coffea arabica, UniProt Q42656)
Sequence (Q42656 whole entry): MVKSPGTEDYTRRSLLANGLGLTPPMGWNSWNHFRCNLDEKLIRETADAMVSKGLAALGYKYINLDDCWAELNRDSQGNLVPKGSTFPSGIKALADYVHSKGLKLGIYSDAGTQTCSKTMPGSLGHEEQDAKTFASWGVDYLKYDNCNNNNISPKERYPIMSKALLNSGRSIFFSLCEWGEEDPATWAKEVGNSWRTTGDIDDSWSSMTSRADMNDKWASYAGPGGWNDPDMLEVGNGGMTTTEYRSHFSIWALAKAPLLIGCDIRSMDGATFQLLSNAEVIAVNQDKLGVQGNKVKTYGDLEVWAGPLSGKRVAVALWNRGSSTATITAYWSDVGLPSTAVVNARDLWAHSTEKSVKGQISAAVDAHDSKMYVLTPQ
experimental-endpoint: IC50 (µM)
Answer in µM, number only, no unit symbol.

                         chemical_structure  experimental_endpoint  value
0  CCCCCCCCNC(=N)N1C[C@H](O)[C@@H](O)[C@H](O)[C@H]1CO                   IC50     23
1  CCCCNC(=N)N1C[C@H](O)[C@@H](O)[C@H](O)[C@H]1CO                   IC50     18

Briefly, IC50 measured for `CCCCCCN1C[C@H](O)[C@@H](O)[C@H](O)[C@H]1CO` : 251

###

test-protocol: Inhibition of alpha-glucosidase in yeast after 30 mins by spectrophotometric analysis
Design: species or system Saccharomyces cerevisiae
pIC50: −log10 of the molar value.
pIC50 values for the compounds below.

Examples with their reported pIC50 follow.
In [3]: df
Out[3]:
                         chemical_structure   value
0  N=C(NCc1ccccc1)N1C[C@H](O)[C@@H](O)[C@H](O)[C@H]1CO  < 3.00
1  N=C(NCCCc1ccccc1)N1C[C@H](O)[C@@H](O)[C@H](O)[C@H]1CO  < 3.00

Entry `CCCCNC(=O)N1C[C@H](O)[C@@H](O)[C@H](O)[C@H]1CO` , pIC50 reported as < 3.00

###

test-protocol: Inhibition of beta-glucosidase in almond after 30 mins by spectrophotometric analysis
Parameters: species or system Prunus dulcis
experimental-endpoint: pIC50
// pIC50 here means minus log10 of the molar concentration (mol/L)

In [3]: df
Out[3]:
                         chemical_structure  value
0  N=C(NCc1ccccc1)N1C[C@H](O)[C@@H](O)[C@H](O)[C@H]1CO   5.37
1  CCCCNC(=N)N1C[C@H](O)[C@@H](O)[C@H](O)[C@H]1CO   4.39

Now, please, on to the next compound.
The compound identified as `OC[C@H]1NC[C@H](O)[C@@H](O)[C@@H]1O` registered its pIC50 at 3.51

###

test-protocol: Inhibition of naringinase in Penicillium decumbens after 30 mins by spectrophotometric analysis
experimental-endpoint: pIC50
Reminder that pIC50 means the negative base-10 logarithm of the concentration expressed in mol/L.

>>> print(df.to_string())
                         chemical_structure  value
0  N=C(NCCO)N1C[C@H](O)[C@@H](O)[C@H](O)[C@H]1CO   3.19
1  CCCCCCN1C[C@H](O)[C@@H](O)[C@H](O)[C@H]1CO   5.22

Proceed to the following item.
pIC50 in this record for `N=C(NCc1ccccc1)N1C[C@H](O)[C@@H](O)[C@H](O)[C@H]1CO` : 4.57
